Tested on: Huh7 cells expressing a subgenomic RNA replicon of Con1 (genotype 1b) sequence origin
Test: microbe, parasite or virus in culture
Details: Hepatitis C virus, Huh-7
Where a name gives a salt, the structure may show the parent alone.
valueKind: IC50 (µM)
// return numeric value only (unit: µM, not printed)

molecule	measuredNumber
O=C(CCCCCCC(=O)NO)NO [Suberohydroxamic acid, suberohydroxamic acid, reference compound]	4.02

// assay Huh7 cells expressing a subgenomic RNA replicon of Con1 (genotype 1b) sequence origin, entry CCN(CC)CCOCCOC(=O)C(CC)(CC)c1ccccc1 [Oxeladin, reference compound] , IC50 value = 8.72

// assay Huh7 cells expressing a subgenomic RNA replicon of Con1 (genotype 1b) sequence origin, entry COc1ccc2cc1Oc1ccc(cc1)C[C@H]1c3c(cc4c(c3Oc3cc5c(cc3OC)CCN(C)[C@@H]5C2)OCO4)CCN1C [Cepharanthine, reference compound] , IC50 value = 19.5

// assay Huh7 cells expressing a subgenomic RNA replicon of Con1 (genotype 1b) sequence origin, entry N[C@@H](Cc1cc(I)c(Oc2cc(I)c(O)c(I)c2)c(I)c1)C(=O)O [Levothyroxine (e.g., sodium), Levothyroxine, reference compound] , IC50 value = 3.79

// assay Huh7 cells expressing a subgenomic RNA replicon of Con1 (genotype 1b) sequence origin, entry CSc1ccc(Oc2ccc(S(N)(=O)=O)cc2CO)cc1C [Compound 47] , IC50 value = 18.1

// assay Huh7 cells expressing a subgenomic RNA replicon of Con1 (genotype 1b) sequence origin, entry CCC(C)(C)c1ccc(CC(C)CN2C[C@@H](C)O[C@@H](C)C2)cc1 (stereo partly drawn) [Amorolfine (e.g., hydrochloride), amorolfine, reference compound] , IC50 value = 1.62
